# test protocol: in vitro
# measurement context: African green monkey
CC50 values, listed per item
Give a bare numeral; the unit µM is implied.

INSERT INTO results (compound, observed_measurement) VALUES
  ('CCCCCCCCCCCCCCCCCCOC[C@H](COP(=O)(O)OC[C@H]1O[C@@](C#N)(c2ccc3c(N)ncnn23)[C@H](O)[C@@H]1O)OCc1ccccc1', 97.9);

Now look at this entry.
compound CCC(CC)COC(=O)[C@H](C)N[P@](=O)(OC[C@H]1O[C@@](C#N)(c2ccc3c(N)ncnn23)[C@H](O)[C@@H]1O)Oc1ccccc1 [RDV, remdesivir, reference compound] , CC50 observed: 101
